Listing: percentage change in maximum specific degradation rate due to surfactant addition of selected molecules
- System: S. maltophilia VUN 10,010
- Run description: Degradation of single high molecular weight PAHs by high initial populations of VUN 10,010 with surfactant
- Type: cell-based, Stenotrophomonas maltophilia
- Run conditions: Tergitol NP-10 5 g l^−1, Single PAH
Metric name: percentage change in maximum specific degradation rate due to surfactant addition

[
  {
    "Molecule": "c1cc2ccc3ccc4ccc5ccc6ccc1c1c2c3c4c5c61",
    "Data value": "+31%"
  },
  {
    "Molecule": "c1ccc2c(c1)ccc1c3ccccc3ccc21",
    "Data value": "+43%"
  },
  {
    "Molecule": "c1ccc2cc3c(ccc4ccccc43)cc2c1 [Benz[a]anthracene, benz[a]anthracene]",
    "Data value": "+119%"
  },
  {
    "Molecule": "c1ccc2c(c1)cc1ccc3cccc4ccc2c1c34 [Benzo[a]pyrene, benzo[a]pyrene]",
    "Data value": "+8%"
  },
  {
    "Molecule": "c1ccc2c(c1)-c1cccc3cccc-2c13",
    "Data value": "+57%"
  },
  {
    "Molecule": "c1ccc2c(c1)ccc1cc3c(ccc4ccccc43)cc12 [Dibenz[a,h]anthracene, dibenz[a,h]anthracene]",
    "Data value": "+76%"
  }
]

====

- Test system: S. maltophilia VUN 10,010
- Run description: Degradation of single high molecular weight PAHs by high initial populations of VUN 10,010 with surfactant
- Format: cell-based, Stenotrophomonas maltophilia
- Run conditions: Brij 35 10 g l^−1, Single PAH
Listing: percentage change in maximum specific degradation rate due to surfactant addition of selected compounds
Metric name: percentage change in maximum specific degradation rate due to surfactant addition

[
  {
    "Compound": "c1ccc2c(c1)ccc1cc3c(ccc4ccccc43)cc12 [Dibenz[a,h]anthracene, dibenz[a,h]anthracene]",
    "Data value": "+73%"
  },
  {
    "Compound": "c1ccc2cc3c(ccc4ccccc43)cc2c1 [Benz[a]anthracene, benz[a]anthracene]",
    "Data value": "+67%"
  },
  {
    "Compound": "c1ccc2c(c1)cc1ccc3cccc4ccc2c1c34 [Benzo[a]pyrene, benzo[a]pyrene]",
    "Data value": "−12%"
  },
  {
    "Compound": "c1ccc2c(c1)-c1cccc3cccc-2c13 [Fluoranthene, fluoranthene]",
    "Data value": "+318%"
  },
  {
    "Compound": "c1cc2ccc3ccc4ccc5ccc6ccc1c1c2c3c4c5c61 [Coronene, coronene]",
    "Data value": "+59%"
  },
  {
    "Compound": "c1ccc2c(c1)ccc1c3ccccc3ccc21 [Chrysene, chrysene]",
    "Data value": "+77%"
  }
]

====

- System: VUN 110,013
- Format: cell-based, Burkholderia sp.
- Run conditions: substrate 50 mg l^−1 (or vapor phase), sole carbon source
Metric name: Growth

[
  {
    "Molecule": "Oc1cc(Cl)ccc1Cl",
    "Target entity": "VUN 110,013",
    "Metric name": "Growth",
    "Data value": "+"
  },
  {
    "Molecule": "O=C(O)/C=C\\C(=O)O",
    "Target entity": "VUN 110,013",
    "Metric name": "Growth",
    "Data value": "+"
  },
  {
    "Molecule": "Oc1ccc(Cl)cc1",
    "Target entity": "VUN 110,013",
    "Metric name": "Growth",
    "Data value": "+"
  },
  {
    "Molecule": "O=[N+]([O-])c1ccc(O)cc1",
    "Target entity": "VUN 110,013",
    "Metric name": "Growth",
    "Data value": "−"
  },
  {
    "Molecule": "c1ccccc1",
    "Target entity": "VUN 110,013",
    "Metric name": "Growth",
    "Data value": "+"
  },
  {
    "Molecule": "O=C(O)c1ccc(O)c(O)c1",
    "Target entity": "VUN 110,013",
    "Metric name": "Growth",
    "Data value": "+"
  },
  {
    "Molecule": "Oc1c(Cl)c(Cl)cc(Cl)c1Cl",
    "Target entity": "VUN 110,013",
    "Metric name": "Growth",
    "Data value": "+"
  },
  {
    "Molecule": "O=C(O)CCC(=O)O",
    "Target entity": "VUN 110,013",
    "Metric name": "Growth",
    "Data value": "+"
  },
  {
    "Molecule": "CCCCCCCCCCCCCCCC",
    "Target entity": "VUN 110,013",
    "Metric name": "Growth",
    "Data value": "+"
  },
  {
    "Molecule": "Oc1ccccc1O",
    "Target entity": "VUN 110,013",
    "Metric name": "Growth",
    "Data value": "+"
  },
  {
    "Molecule": "Oc1c(Cl)c(Cl)c(Cl)c(Cl)c1Cl",
    "Target entity": "VUN 110,013",
    "Metric name": "Growth",
    "Data value": "−"
  },
  {
    "Molecule": "CC(=O)C(=O)O [Pyruvate]",
    "Target entity": "VUN 110,013",
    "Metric name": "Growth",
    "Data value": "+"
  },
  {
    "Molecule": "O=C(O)c1ccccc1O",
    "Target entity": "VUN 110,013",
    "Metric name": "Growth",
    "Data value": "+"
  },
  {
    "Molecule": "O=C(O)c1ccccc1C(=O)O",
    "Target entity": "VUN 110,013",
    "Metric name": "Growth",
    "Data value": "+"
  },
  {
    "Molecule": "Cc1ccccc1",
    "Target entity": "VUN 110,013",
    "Metric name": "Growth",
    "Data value": "−"
  },
  {
    "Molecule": "O=C(O)c1ccc(O)cc1 [p-hydroxybenzoic acid]",
    "Target entity": "VUN 110,013",
    "Metric name": "Growth",
    "Data value": "+"
  },
  {
    "Molecule": "Oc1cc(Cl)c(Cl)cc1Cl",
    "Target entity": "VUN 110,013",
    "Metric name": "Growth",
    "Data value": "+"
  },
  {
    "Molecule": "O=C(O)c1ccccc1",
    "Target entity": "VUN 110,013",
    "Metric name": "Growth",
    "Data value": "+"
  },
  {
    "Molecule": "O=C(O)c1cc(O)ccc1O",
    "Target entity": "VUN 110,013",
    "Metric name": "Growth",
    "Data value": "+"
  },
  {
    "Molecule": "CC(C)(CO)[C@@H](O)C(=O)NCCC(=O)O",
    "Target entity": "VUN 110,013",
    "Metric name": "Growth",
    "Data value": "+"
  },
  {
    "Molecule": "CCCCCCCC",
    "Target entity": "VUN 110,013",
    "Metric name": "Growth",
    "Data value": "+"
  },
  {
    "Molecule": "O=C(O)C=Cc1ccccc1",
    "Target entity": "VUN 110,013",
    "Metric name": "Growth",
    "Data value": "−"
  },
  {
    "Molecule": "O=[N+]([O-])c1ccccc1",
    "Target entity": "VUN 110,013",
    "Metric name": "Growth",
    "Data value": "−"
  }
]
